All figures here come from ChEMBL document CHEMBL1275276.

Test system: Candida albicans
Assay: Binding affinity to Candida albicans CaMdr1p expressed in yeast AD1-8u
The source made the active and inactive calls. No rule for the calls is given here. Numbered stars: 1 amine (or outer) side, 2 acyl side, 3 side chain; on linkers, the order of the positions; unused ones are H or OH. Bridge positions count the residues as written; N and C are the ends. Square brackets hold non-standard residues; d marks the D form. Peptide text beside a SMILES is read from it. I, II: the chains in the order shown. Actinocin(1to9) = Cc1c2oc3c(C)ccc(C(=O)[*:2])c3nc-2c(C(=O)[*:1])c(N)c1=O; NMeV = CN[C@H](C(=O)O)C(C)C; Sar = CNCC(=O)O
API: response.call in Y for active, N for inactive

Fill in: this test's call for CN(C)C(=O)Nc1ccc(Cl)c(Cl)c1 [DCMU] is ___
Y

Try this molecule next: CCCCCCCCCCCC[N+](C)(C)CCCS(=O)(=O)[O-]
Y

Try this molecule next: CCN(CC)C(=S)SSC(=S)N(CC)CC
Y

Try this molecule next: COc1cc2ncnc(Nc3ccc(F)c(Cl)c3)c2cc1OCCCN1CCOCC1 [GEFITINIB]
N

Try this molecule next: CCCCCCCCCCCCCC(=O)OCCN(C)C
N

Try this molecule next: CCCCNC(=O)n1c(NC(=O)OC)nc2ccccc21 [BENOMYL]
Y

Try this molecule next: Cc1c2oc3c(C)ccc(C(=O)N[C@@H]4C(=O)N[C@H](C(C)C)C(=O)N5CCC[C@H]5C(=O)N(C)CC(=O)N(C)[C@@H](C(C)C)C(=O)O[C@@H]4C)c3nc-2c(C(=O)N[C@@H]2C(=O)N[C@H](C(C)C)C(=O)N3CCC[C@H]3C(=O)N(C)CC(=O)N(C)[C@@H](C(C)C)C(=O)O[C@@H]2C)c(N)c1=O [DACTINOMYCIN] (I: T[dV]P[Sar][NMeV] / II: T[dV]P[Sar][NMeV]; ester I:1-I:C, II:1-II:C; linker I:N-II:N via Actinocin(1to9))
Y

Try this molecule next: COc1cccc2c1C(=O)c1c(O)c3c(c(O)c1C2=O)C[C@@](O)(C(C)=O)C[C@@H]3O[C@H]1C[C@H](N)[C@H](O)[C@H](C)O1 [DAUNORUBICIN]
N

====

Test system: Candida albicans
Experiment: Binding affinity to Candida albicans CaMdr1p expressed in yeast AD1-8u
Active and inactive are the calls of the source. How the calls were made is not given here.
API: response.call in active, inactive

Fill in: this test's call for COc1ccc(C[C@H]2NC[C@H](O)[C@H]2OC(C)=O)cc1 is ___
active

Try this compound next: CCC(C)n1ncn(-c2ccc(N3CCN(c4ccc(OCC5COC(Cn6cncn6)(c6ccc(Cl)cc6Cl)O5)cc4)CC3)cc2)c1=O (stereo unspecified)
inactive

Try this compound next: Oc1cccc2cccnc12
inactive

Try this compound next: COc1ccc(CCN(C)CCCC(C#N)(c2ccc(OC)c(OC)c2)C(C)C)cc1OC (stereo unspecified)
inactive

Try this compound next: CCCCCCCCCCCC(=O)OCCN(C)C
inactive

Try this compound next: COc1ccc2cc3[n+](cc2c1OC)CCc1cc2c(cc1-3)OCO2.[Cl-] [BERBERINE CHLORIDE]
inactive

====

Tested on: Saccharomyces cerevisiae; also: test concentration or dose not given here
Test: Antifungal activity against yeast AD1-8u expressing Candida albicans CaCdr1p by agar disk diffusion assay
Type: functional
experimental endpoint: inhibition zone (IZ) (cm)
Respond with the bare value in cm.

Look up inhibition zone (IZ): CCCCCCCCCCCCn1cncn1
0.7

Try this molecule next: C[C@@H]1O[C@@H](O[C@H]2C[C@@H](O)[C@]3(CO)[C@H]4[C@H](O)C[C@]5(C)[C@@H](C6=CC(=O)OC6)CC[C@]5(O)[C@@H]4CC[C@]3(O)C2)[C@H](O)[C@H](O)[C@H]1O [OUABAIN]
0

Try this molecule next: CO[C@@H]1[C@@H](OC(N)=O)[C@@H](O)[C@H](Oc2ccc3c(O)c(NC(=O)c4ccc(O)c(CC=C(C)C)c4)c(=O)oc3c2C)OC1(C)C [NOVOBIOCIN]
0

Try this molecule next: COC(=O)c1ccccc1-c1c2ccc(=N)cc-2oc2cc(N)ccc12.Cl [RHODAMINE123]
1

Try this molecule next: CCCCCCCCCCCC[N+](C)(C)CCCS(=O)(=O)[O-]
0.2

Try this molecule next: COc1ccc(C[C@H]2NC[C@H](O)[C@H]2OC(C)=O)cc1 [ANISOMYCIN]
0.9

Try this molecule next: COc1cccc2c1C(=O)c1c(O)c3c(c(O)c1C2=O)C[C@@](O)(C(C)=O)C[C@@H]3O[C@H]1C[C@H](N)[C@H](O)[C@H](C)O1 [DAUNORUBICIN]
0.5

Try this molecule next: CC(=O)[C@H]1CC[C@H]2[C@@H]3CCC4=CC(=O)CC[C@]4(C)[C@H]3CC[C@]12C [PROGESTERONE]
0

Try this molecule next: O=C(N[C@H](CO)[C@H](O)c1ccc([N+](=O)[O-])cc1)C(Cl)Cl [CHLORAMPHENICOL]
0.8

Try this molecule next: COCCOC(=O)C1=C(C)NC(C)=C(C(=O)OC(C)C)C1c1cccc([N+](=O)[O-])c1 (centres undefined) [NIMODIPINE]
0

Try this molecule next: CON(C)C(=O)Nc1ccc(Cl)c(Cl)c1 [LINURON]
0.8

Try this molecule next: COc1cc([C@@H]2c3cc4c(cc3[C@@H](O[C@@H]3O[C@@H]5CO[C@@H](C)O[C@H]5[C@H](O)[C@H]3O)[C@H]3COC(=O)[C@H]23)OCO4)cc(OC)c1O [ETOPOSIDE]
1.5

Try this molecule next: CC/C(=C(\c1ccccc1)c1ccc(OCCN(C)C)cc1)c1ccccc1 [TAMOXIFEN]
0.7

Try this molecule next: CN[C@H]1C[C@@H](N)[C@H](O)[C@@H](O[C@@H]2O[C@H](CO)[C@H](O)[C@H]3O[C@@]4(O[C@H]23)O[C@H]([C@H](N)CO)[C@H](O)[C@H](O)[C@H]4O)[C@@H]1O
0

Try this molecule next: O=C1c2c(O)ccc(O)c2C(=O)c2c(NCCNCCO)ccc(NCCNCCO)c21 [MITOXANTRONE]
0.2

Try this molecule next: CCCCCCCCCCCCCC(=O)OCCN(C)C
0

Try this molecule next: CC[C@@]1(O)C(=O)OCc2c1cc1n(c2=O)Cc2cc3c(CN(C)C)c(O)ccc3nc2-1 [TOPOTECAN]
0.5

Try this molecule next: COC(=O)[C@@H]1[C@H]2C[C@H]3c4[nH]c5ccccc5c4CCN3C[C@@H]2CC[C@@H]1O.Cl [YOHIMBINE HYDROCHLORIDE]
1.3

Try this molecule next: COc1cc2c(c(OC)c1OC)-c1ccc(OC)c(=O)cc1[C@@H](NC(C)=O)CC2 [COLCHICINE]
0

====

Test system: Candida albicans
Assay: Binding affinity to Candida albicans CaCdr1p expressed in yeast AD1-8u
Activity calls are given as the source filed them. No rule for the calls is given here.
API: response.call in active, inactive

Fill in: this test's call for OCCN1CCN(CCCN2c3ccccc3Sc3ccc(C(F)(F)F)cc32)CC1 [FLUPHENAZINE] is ___
active

Try this compound next: COc1ccc(CCN(C)CCCC(C#N)(c2ccc(OC)c(OC)c2)C(C)C)cc1OC (stereo unspecified)
active

Try this compound next: CN(C)C(=O)Nc1ccc(Cl)c(Cl)c1 [DCMU]
active

Try this compound next: CON(C)C(=O)Nc1ccc(Br)c(Cl)c1 [CHLORBROMURON]
active

Try this compound next: NC[C@H]1O[C@H](O[C@H]2[C@H](O)[C@@H](O[C@H]3O[C@H](CO)[C@@H](O)[C@H](N)[C@H]3O)[C@H](N)C[C@@H]2N)[C@H](O)[C@@H](O)[C@@H]1O [KANAMYCIN]
inactive

Try this compound next: COC(=O)C1=C(C)NC(C)=C(C(=O)OCCCN2CCC(c3ccccc3)(c3ccccc3)CC2)[C@H]1c1cccc([N+](=O)[O-])c1 [NIGULDIPINE]
active
